Biological target: T1, Twinkle NTD (Homo sapiens, UniProt Q96RR1 43-372)
T1 sequence: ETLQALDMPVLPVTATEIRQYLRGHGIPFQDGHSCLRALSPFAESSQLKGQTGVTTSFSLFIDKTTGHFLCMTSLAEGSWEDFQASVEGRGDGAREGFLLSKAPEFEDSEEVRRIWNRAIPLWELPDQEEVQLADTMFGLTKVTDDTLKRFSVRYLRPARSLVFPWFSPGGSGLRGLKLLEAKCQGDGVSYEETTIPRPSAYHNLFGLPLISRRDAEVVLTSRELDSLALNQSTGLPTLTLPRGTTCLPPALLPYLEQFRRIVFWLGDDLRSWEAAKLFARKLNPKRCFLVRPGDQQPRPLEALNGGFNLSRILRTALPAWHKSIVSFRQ
Assay: fluorescence anisotropy; no NaCl added; 50 mM Tris acetate pH 7.5, 10% glycerol, 0.05% Tween-20, 0.5 mM DTT, 0 or 50 mM NaCl; 2.5 nM DNA; no Mg2+ or nucleotide listed; temperature not stated
Conditions: protein: recombinant; tags: SUMO tag removed (ULP1); label: 3' fluorescein-T; single strand
endpoint label: Kd

INSERT INTO assay_data (binder, observed) VALUES
  ('ATAACTCTTGAACACT (ssDNA) [16 nt ssDNA]', '105 nM'),
  ('AACTCTTGAACACT (ssDNA) [14 nt ssDNA]', '121 nM'),
  ('CTCTTGAACACT (ssDNA) [12 nt ssDNA]', '141 nM');
